Attribution: ChEMBL document CHEMBL4513216

ASSAY PROTOCOL: Toxicity liver stage against HepG2, at 10uM
Format: cell-based
Design: test concentration 10 uM, cell line HepG2-A16-CD81EGFP
EXPERIMENTAL CONDITIONS: human, HepG2-A16-CD81EGFP cells; read-out: INHIBITION
ASSAY ENDPOINT: cytotoxicity at 10 µM

Answered examples (4):
>>> result("CN(C)c1ncc(CN2CCC(O)(c3ccccc3F)CC2)cn1")
"2.4%"
>>> result("CC[C@H]1CN(C(=O)c2cnc(CN3CCCC3)s2)CC[C@@]1(C)O")
"-16%"
>>> result("CS(=O)(=O)c1ccc(CNC(=O)N2CCC(CO)CC2)cc1")
"-11.6%"
>>> result("CN1CCN(C(=O)CCn2nnc3ccccc32)CC(C(N)=O)C1 (stereo not given)")
"2.24%"

INPUT: Request the reported cytotoxicity at 10 µM associated with c1cnc(NC[C@H]2OC[C@@H]3CCN(Cc4cccnc4)C[C@@H]32)nc1
OUTPUT: -3.12%

INPUT: Request the reported cytotoxicity at 10 µM associated with O=C(c1ccco1)N(CC(F)(F)F)C1CCOCC1
OUTPUT: -12.3%

INPUT: Request the reported cytotoxicity at 10 µM associated with c1cn2c(n1)CN(C1CCOCC1)CC(CN1CCCC1)C2 (stereo not given)
OUTPUT: -0.123%

INPUT: Request the reported cytotoxicity at 10 µM associated with N#Cc1ccc(F)c(CNC(=O)NC(CO)c2ccccc2)c1 (stereo not given)
OUTPUT: 4.16%

INPUT: Request the reported cytotoxicity at 10 µM associated with COCCN1CCN(C(C)C(=O)Nc2ccnn2C(C)C)CC1 (stereo not given)
OUTPUT: -8.83%

====

ASSAY PROTOCOL: Toxicity liver stage against HepG2, at 10uM
Type: cell-based
Parameters: test concentration 10 uM, cell line HepG2-A16-CD81EGFP
EXPERIMENTAL CONDITIONS: human, HepG2-A16-CD81EGFP cells; read-out: INHIBITION
ASSAY ENDPOINT: cytotoxicity at 10 µM
Answer as a quantity: numeral, then unit.

Answered examples (5):
>>> result("COc1ccccc1NC(=O)N(CCO)Cc1ccsc1")
"-1.05%"
>>> result("COCCN1CCO[C@H]2CN(C(=O)c3ccncc3F)C[C@H]21")
"-141%"
>>> result("CN(C)C(=O)c1ccc(OC2CCCC2)cc1")
"-3.51%"
>>> result("CCC(C)NC(=O)c1sccc1-n1cnnn1 (stereo not drawn)")
"5.45%"
>>> result("O=C(N[C@@H]1CN(c2ncccn2)C[C@@H]2CCCO[C@@H]21)c1ccncc1")
"2.29%"

INPUT: Request the reported cytotoxicity at 10 µM associated with CCc1cnccc1C(=O)NC1CCN(C(=O)C2CCCCC2)CC1
OUTPUT: 3.51%

INPUT: Request the reported cytotoxicity at 10 µM associated with Cc1nccn1CCC(=O)N1CCC2(CCC(=O)N(CC3CC3)C2)CC1
OUTPUT: -8.46%

INPUT: Request the reported cytotoxicity at 10 µM associated with CCC(CNC(=O)c1ccccc1Br)N1CCc2ccccc2C1 (stereo not drawn)
OUTPUT: 16.6%

INPUT: Request the reported cytotoxicity at 10 µM associated with O=C(NCc1nc(C2CCCCC2)no1)C1CC(=O)N(C2CC2)C1 (stereo not drawn)
OUTPUT: 1.5%

====

ASSAY PROTOCOL: Toxicity liver stage against HepG2, at 10uM
Type: cell-based
Parameters: test concentration 10 uM, cell line HepG2-A16-CD81EGFP
EXPERIMENTAL CONDITIONS: human, HepG2-A16-CD81EGFP cells; read-out: INHIBITION
ASSAY ENDPOINT: cytotoxicity at 10 µM (%)
Numeric answer only, unit % assumed.

Answered examples (3):
>>> measured_number("COc1ccc(N2CCN(C(=O)Cn3nc(C)c(C)c3C)C(C)C2)cc1 (centres undefined)")
-4.33
>>> measured_number("CSC(C)C(=O)NCCC(=O)N1CCN(c2ccccn2)CC1 (centres undefined)")
3.05
>>> measured_number("CCN1CCN(C(=O)c2ccc(=O)n(C)c2)c2ccccc21")
-1.64

INPUT: Request the reported cytotoxicity at 10 µM associated with O=C(O)c1ccnc(-c2ccnc(COc3cccc(F)c3)n2)c1
OUTPUT: -2.31

INPUT: Request the reported cytotoxicity at 10 µM associated with COc1ccc(C2Nc3cc(Cl)ccc3C3=NCCN32)cc1O (centres undefined)
OUTPUT: -31.1

INPUT: Request the reported cytotoxicity at 10 µM associated with COc1cc(CN2CCCC23CCN(c2ccccn2)CC3)ccc1F
OUTPUT: -11.5

INPUT: Request the reported cytotoxicity at 10 µM associated with CCCC(=O)N1CCC(c2cc3n(n2)[C@@H](C(F)(F)F)C[C@@H](C)N3)CC1
OUTPUT: -10.3

INPUT: Request the reported cytotoxicity at 10 µM associated with Cc1nc(-c2cnn(C)c2)nc2c1CN(C(=O)c1ccc[nH]1)CC2
OUTPUT: 13

INPUT: Request the reported cytotoxicity at 10 µM associated with CC(C)NC(=O)N1CCC2(CCC(=O)N2CCN2CCCC2)CC1
OUTPUT: 3.7

INPUT: Request the reported cytotoxicity at 10 µM associated with Cc1cc(C(F)F)nn1C(C)C(=O)NCc1nccn1C (centres undefined)
OUTPUT: 4.86

INPUT: Request the reported cytotoxicity at 10 µM associated with CCOCC1CN(S(=O)(=O)C2CC2)Cc2nn(C)cc21 (centres undefined)
OUTPUT: -112

INPUT: Request the reported cytotoxicity at 10 µM associated with c1cnn(CCNCc2cnc(N3CCOCC3)nc2)c1
OUTPUT: -1.73

INPUT: Request the reported cytotoxicity at 10 µM associated with COCCn1cncc1CN1CCCC(C(=O)Cc2ccccc2)C1 (centres undefined)
OUTPUT: -6.55

INPUT: Request the reported cytotoxicity at 10 µM associated with COCC1COCCC12CCN(C(=O)COc1ccccc1)CC2 (centres undefined)
OUTPUT: -1.69

INPUT: Request the reported cytotoxicity at 10 µM associated with CC(O)CN1CCN(C(=O)c2ccc(N(C)C)nn2)CC1 (centres undefined)
OUTPUT: -13.4

INPUT: Request the reported cytotoxicity at 10 µM associated with Cc1nc(NC2CC2)c2c(n1)c(C)nn2C
OUTPUT: -3.79

INPUT: Request the reported cytotoxicity at 10 µM associated with COc1cc(OC)cc(C(=O)NCc2nn(C)c3c2COCC3)c1
OUTPUT: 6.17

INPUT: Request the reported cytotoxicity at 10 µM associated with Cc1nccnc1N1CCC(Cc2ccccc2Cl)(C(=O)O)CC1
OUTPUT: 12.6

INPUT: Request the reported cytotoxicity at 10 µM associated with c1cc(-c2cnc(C3CCNCC3)cn2)n[nH]1
OUTPUT: -2.78

====

ASSAY PROTOCOL: Toxicity liver stage against HepG2, at 10uM
Format: cell-based
Parameters: test concentration 10 uM, cell line HepG2-A16-CD81EGFP
EXPERIMENTAL CONDITIONS: human, HepG2-A16-CD81EGFP cells; read-out: INHIBITION
# cytotoxicity at 10 µM annotations
Numeric answer only, unit % assumed.

INPUT: Request the reported cytotoxicity at 10 µM associated with CC(CO)CN(Cc1ccccc1)Cc1cnc2ccccc2n1 (centres undefined)
OUTPUT: 6.6

INPUT: Request the reported cytotoxicity at 10 µM associated with CNC(=O)CNC(=O)CC1C(=O)NCCN1Cc1ccccc1C (centres undefined)
OUTPUT: -2.88

INPUT: Request the reported cytotoxicity at 10 µM associated with O=C(c1cccc(S(=O)(=O)NC[C@@H]2C[C@H](F)CN2)c1)N1CCCCC1
OUTPUT: 3.5

INPUT: Request the reported cytotoxicity at 10 µM associated with CCOc1ccnc(N2CCCN(c3nc(C4CC4)ns3)CC2)n1
OUTPUT: 6.97

INPUT: Request the reported cytotoxicity at 10 µM associated with c1cncc(C2=NOC3(CCN(Cc4c[nH]c5ccccc45)CC3)C2)c1
OUTPUT: 9.49

INPUT: Request the reported cytotoxicity at 10 µM associated with O=C(NC[C@]12COC[C@H]1CN(CC1CCOCC1)C2)c1ccccc1
OUTPUT: -5.15

INPUT: Request the reported cytotoxicity at 10 µM associated with c1cc(-c2nnc(C3CCCN(CC4CCCCC4)C3)o2)ccn1 (centres undefined)
OUTPUT: -12.1

INPUT: Request the reported cytotoxicity at 10 µM associated with O=C(C1CCCC1)N1CCCC2(CCN(c3cnccn3)CC2)C1
OUTPUT: 9.53

INPUT: Request the reported cytotoxicity at 10 µM associated with CNC(=O)[C@@H]1C[C@H](N)CN1S(=O)(=O)c1cc(Cl)cc(Cl)c1O
OUTPUT: 1.68

====

# cytotoxicity at 10 µM annotations
ASSAY PROTOCOL: Toxicity liver stage against HepG2, at 10uM
Type: cell-based
Design: test concentration 10 uM, cell line HepG2-A16-CD81EGFP
EXPERIMENTAL CONDITIONS: human, HepG2-A16-CD81EGFP cells; read-out: INHIBITION
Numeric answer only, unit % assumed.

>>> measured_number("Cc1ccc(C(=O)NCC(O)c2cccc(F)c2)c(=O)[nH]1 (stereo not drawn)")
-2.83

INPUT: Request the reported cytotoxicity at 10 µM associated with CN(Cc1ccccc1)c1ncccc1CNC1CCC1
OUTPUT: 13.5

INPUT: Request the reported cytotoxicity at 10 µM associated with CN(C)CCCNC(=O)C1CC(=O)N(c2n[nH]c3cccc(F)c23)C1 (stereo not drawn)
OUTPUT: -5.92
